# targetOfAssay: Cyclin-dependent kinase 2 (Homo sapiens)
# testSummary: Inhibition of CDK2/cyclinA
metricName: IC50

Exam item: Look up IC50 of COc1ccc(NC(=S)NNC2=c3ccccc3=NC2=O)cc1 and report it.
Marked response: > 50 µM

* * *

# targetOfAssay: Rho-associated protein kinase 1 (Homo sapiens, UniProt Q13464)
# Sequence (Q13464 whole entry): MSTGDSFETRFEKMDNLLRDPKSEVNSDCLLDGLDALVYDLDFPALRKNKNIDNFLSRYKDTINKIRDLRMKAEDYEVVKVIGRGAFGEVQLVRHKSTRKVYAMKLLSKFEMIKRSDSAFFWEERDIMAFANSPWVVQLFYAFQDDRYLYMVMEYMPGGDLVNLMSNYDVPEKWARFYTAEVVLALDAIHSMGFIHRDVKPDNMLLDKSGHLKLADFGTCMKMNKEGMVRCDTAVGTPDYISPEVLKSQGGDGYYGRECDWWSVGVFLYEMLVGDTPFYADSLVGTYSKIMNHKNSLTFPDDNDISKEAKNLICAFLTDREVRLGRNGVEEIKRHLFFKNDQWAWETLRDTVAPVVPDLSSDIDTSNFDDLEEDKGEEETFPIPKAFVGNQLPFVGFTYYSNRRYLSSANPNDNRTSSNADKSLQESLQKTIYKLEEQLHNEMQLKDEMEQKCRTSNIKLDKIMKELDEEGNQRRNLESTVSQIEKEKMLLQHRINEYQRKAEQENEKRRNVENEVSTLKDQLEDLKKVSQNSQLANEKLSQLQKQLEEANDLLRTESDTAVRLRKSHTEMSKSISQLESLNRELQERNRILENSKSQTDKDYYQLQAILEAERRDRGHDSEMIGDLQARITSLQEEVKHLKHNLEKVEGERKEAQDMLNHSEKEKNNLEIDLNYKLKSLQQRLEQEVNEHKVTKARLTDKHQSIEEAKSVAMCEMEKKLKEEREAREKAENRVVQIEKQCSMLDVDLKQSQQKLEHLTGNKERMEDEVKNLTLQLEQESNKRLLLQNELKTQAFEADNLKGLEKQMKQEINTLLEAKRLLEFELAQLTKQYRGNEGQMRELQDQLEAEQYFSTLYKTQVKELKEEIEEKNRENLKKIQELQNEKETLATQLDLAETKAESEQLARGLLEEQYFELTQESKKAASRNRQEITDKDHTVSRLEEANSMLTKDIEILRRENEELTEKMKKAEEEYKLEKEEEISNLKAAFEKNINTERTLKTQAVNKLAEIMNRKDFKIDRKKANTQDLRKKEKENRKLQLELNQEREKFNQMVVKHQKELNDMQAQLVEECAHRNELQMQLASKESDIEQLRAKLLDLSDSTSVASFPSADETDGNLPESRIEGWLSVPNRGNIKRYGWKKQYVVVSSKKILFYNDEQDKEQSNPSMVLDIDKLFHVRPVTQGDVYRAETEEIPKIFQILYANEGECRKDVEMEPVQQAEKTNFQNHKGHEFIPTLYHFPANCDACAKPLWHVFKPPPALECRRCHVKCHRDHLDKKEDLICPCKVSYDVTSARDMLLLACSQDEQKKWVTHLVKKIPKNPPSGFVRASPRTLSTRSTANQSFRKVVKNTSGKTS
# testSummary: Inhibition of ROCK1
metricName: IC50

Exam item: Output measured IC50 for this item: COc1ccc(NC(=S)NNC2=c3ccccc3=NC2=O)cc1
Marked response: > 50 µM

* * *

# targetOfAssay: Ribosomal protein S6 kinase alpha-1 (Homo sapiens, UniProt Q15418)
# Sequence (Q15418 whole entry): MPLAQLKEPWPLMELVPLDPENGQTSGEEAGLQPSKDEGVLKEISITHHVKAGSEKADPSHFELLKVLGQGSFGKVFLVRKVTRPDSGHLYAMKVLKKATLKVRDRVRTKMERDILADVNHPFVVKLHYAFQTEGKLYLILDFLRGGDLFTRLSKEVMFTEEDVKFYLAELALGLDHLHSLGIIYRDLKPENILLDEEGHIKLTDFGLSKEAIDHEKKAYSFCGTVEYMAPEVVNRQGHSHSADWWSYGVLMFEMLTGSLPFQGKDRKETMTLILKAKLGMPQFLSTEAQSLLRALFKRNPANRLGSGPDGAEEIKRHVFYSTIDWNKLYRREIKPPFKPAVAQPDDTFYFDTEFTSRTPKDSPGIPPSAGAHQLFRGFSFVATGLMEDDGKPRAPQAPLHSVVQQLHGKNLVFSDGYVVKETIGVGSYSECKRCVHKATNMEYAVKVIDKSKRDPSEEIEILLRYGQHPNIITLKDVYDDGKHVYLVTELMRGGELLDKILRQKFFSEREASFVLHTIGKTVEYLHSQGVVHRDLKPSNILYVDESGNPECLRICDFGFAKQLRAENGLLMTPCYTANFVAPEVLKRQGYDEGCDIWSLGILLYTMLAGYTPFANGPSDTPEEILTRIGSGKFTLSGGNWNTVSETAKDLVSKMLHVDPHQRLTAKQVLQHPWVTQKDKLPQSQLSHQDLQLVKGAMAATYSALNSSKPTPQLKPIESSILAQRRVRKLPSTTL
metricName: pIC50
Notebook: values listed as pIC50 are -log10 of the concentration (mol/L).

Exam item: Identify measured pIC50 associated with COc1ccc(NC(=S)NNC2=c3ccccc3=NC2=O)cc1
Marked response: 4.46

* * *

# targetOfAssay: UniProt:P17252
metricName: IC50

Exam item: Identify IC50 associated with the compound COc1ccc(NC(=S)NNC2=c3ccccc3=NC2=O)cc1
Marked response: > 50 µM

* * *

# targetOfAssay: Tyrosine-protein kinase ABL1 (Homo sapiens, UniProt P00519)
# Sequence (P00519 whole entry): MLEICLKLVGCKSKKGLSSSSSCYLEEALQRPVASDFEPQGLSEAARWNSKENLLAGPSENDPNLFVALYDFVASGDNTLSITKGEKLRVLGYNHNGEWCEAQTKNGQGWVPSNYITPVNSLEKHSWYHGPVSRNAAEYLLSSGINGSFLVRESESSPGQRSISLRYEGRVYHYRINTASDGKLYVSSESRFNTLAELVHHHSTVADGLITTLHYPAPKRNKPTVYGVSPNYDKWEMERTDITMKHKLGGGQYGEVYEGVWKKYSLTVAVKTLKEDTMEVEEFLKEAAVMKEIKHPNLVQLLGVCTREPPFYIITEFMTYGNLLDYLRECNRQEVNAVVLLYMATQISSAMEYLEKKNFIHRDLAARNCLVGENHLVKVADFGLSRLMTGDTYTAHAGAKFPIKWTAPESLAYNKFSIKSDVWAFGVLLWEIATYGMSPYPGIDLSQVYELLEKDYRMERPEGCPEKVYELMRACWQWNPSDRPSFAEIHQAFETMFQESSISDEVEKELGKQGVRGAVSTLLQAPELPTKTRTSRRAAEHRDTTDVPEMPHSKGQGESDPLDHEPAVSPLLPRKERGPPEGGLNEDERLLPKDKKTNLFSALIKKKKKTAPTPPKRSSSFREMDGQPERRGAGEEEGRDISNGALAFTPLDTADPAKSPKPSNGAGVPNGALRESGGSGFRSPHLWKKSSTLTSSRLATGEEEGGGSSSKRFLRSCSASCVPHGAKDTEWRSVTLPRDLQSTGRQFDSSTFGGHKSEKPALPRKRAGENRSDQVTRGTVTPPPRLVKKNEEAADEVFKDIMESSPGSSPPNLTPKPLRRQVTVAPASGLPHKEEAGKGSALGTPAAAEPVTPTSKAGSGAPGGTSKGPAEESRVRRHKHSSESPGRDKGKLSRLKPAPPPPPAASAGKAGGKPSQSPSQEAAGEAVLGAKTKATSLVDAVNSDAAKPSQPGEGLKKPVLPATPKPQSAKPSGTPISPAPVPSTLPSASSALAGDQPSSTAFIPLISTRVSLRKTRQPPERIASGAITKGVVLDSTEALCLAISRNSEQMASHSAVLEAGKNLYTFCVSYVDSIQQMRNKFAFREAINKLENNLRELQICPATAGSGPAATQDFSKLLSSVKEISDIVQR
metricName: IC50

Exam item: Consider the compound COc1ccc(NC(=S)NNC2=c3ccccc3=NC2=O)cc1 tested on Tyrosine-protein kinase ABL1 (Homo sapiens, UniProt P00519); state its IC50.
Marked response: > 50 µM

* * *

# targetOfAssay: Serine/threonine-protein kinase pim-1 (Homo sapiens, UniProt P11309)
# Sequence (P11309 whole entry): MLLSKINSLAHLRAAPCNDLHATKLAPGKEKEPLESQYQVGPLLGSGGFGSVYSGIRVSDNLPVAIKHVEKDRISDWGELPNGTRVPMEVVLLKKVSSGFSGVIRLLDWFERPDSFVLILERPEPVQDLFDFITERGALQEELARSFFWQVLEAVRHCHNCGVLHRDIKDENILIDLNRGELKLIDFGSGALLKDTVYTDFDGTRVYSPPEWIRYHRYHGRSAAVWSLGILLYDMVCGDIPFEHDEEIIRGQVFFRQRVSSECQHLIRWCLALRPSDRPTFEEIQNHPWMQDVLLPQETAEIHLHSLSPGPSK
metricName: IC50

Exam item: Supply recorded IC50 for COc1ccc(NC(=S)NNC2=c3ccccc3=NC2=O)cc1 here.
Marked response: > 50 µM

* * *

# targetOfAssay: Serine/threonine-protein kinase Chk1 (Homo sapiens, UniProt O14757)
# Sequence (O14757 whole entry): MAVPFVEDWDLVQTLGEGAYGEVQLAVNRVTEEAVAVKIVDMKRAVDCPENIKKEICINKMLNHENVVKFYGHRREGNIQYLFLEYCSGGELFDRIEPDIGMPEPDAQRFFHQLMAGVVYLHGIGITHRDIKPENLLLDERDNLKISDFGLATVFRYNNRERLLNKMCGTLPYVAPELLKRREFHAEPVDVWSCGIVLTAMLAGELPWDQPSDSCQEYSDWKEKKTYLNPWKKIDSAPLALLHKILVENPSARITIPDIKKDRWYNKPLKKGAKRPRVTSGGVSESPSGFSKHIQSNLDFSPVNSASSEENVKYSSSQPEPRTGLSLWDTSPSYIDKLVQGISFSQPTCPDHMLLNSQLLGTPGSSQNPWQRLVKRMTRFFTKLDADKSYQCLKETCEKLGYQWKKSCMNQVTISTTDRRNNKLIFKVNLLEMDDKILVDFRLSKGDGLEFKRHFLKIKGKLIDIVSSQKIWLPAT
pIC50: −log10 of the molar value.
metricName: pIC50

Exam item: Provide measured pIC50 value, entry: COc1ccc(NC(=S)NNC2=c3ccccc3=NC2=O)cc1
Marked response: < 4.30

* * *

# targetOfAssay: Receptor-type tyrosine-protein kinase FLT3 (Homo sapiens)
# Sequence (P36888 whole entry): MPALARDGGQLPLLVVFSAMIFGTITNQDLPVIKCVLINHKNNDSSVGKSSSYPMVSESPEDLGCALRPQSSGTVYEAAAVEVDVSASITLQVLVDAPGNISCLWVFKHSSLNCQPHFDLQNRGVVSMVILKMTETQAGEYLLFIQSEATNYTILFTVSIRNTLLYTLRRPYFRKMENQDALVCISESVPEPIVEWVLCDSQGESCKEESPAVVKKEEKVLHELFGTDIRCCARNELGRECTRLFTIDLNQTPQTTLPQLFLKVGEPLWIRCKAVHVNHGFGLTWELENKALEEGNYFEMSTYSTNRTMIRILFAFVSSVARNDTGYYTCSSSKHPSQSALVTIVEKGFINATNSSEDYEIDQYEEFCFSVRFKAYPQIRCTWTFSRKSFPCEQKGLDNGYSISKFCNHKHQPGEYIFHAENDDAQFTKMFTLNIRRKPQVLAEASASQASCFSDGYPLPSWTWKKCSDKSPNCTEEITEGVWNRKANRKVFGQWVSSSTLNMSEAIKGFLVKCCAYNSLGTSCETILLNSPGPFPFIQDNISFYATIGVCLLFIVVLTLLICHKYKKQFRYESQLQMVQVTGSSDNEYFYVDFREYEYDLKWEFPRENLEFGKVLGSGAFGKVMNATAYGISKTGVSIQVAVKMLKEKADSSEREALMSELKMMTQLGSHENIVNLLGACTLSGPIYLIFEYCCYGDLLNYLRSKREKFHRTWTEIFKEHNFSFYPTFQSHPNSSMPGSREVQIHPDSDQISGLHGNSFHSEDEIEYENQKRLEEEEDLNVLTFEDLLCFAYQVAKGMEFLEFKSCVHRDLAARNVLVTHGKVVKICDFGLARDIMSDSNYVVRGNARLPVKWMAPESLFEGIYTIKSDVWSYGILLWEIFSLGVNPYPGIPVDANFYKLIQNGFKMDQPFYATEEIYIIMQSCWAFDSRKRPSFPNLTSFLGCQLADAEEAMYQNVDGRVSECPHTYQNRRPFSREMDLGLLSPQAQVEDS
pIC50: −log10 of the molar value.
metricName: pIC50

Exam item: Read off the recorded pIC50 for COc1ccc(NC(=S)NNC2=c3ccccc3=NC2=O)cc1
Marked response: < 4.30

* * *

This section presents compounds with their documented IC50 values.
# testSummary: cells
# conditionDescription: Homo sapiens, KB 3-1, 72 h, read-out: pIC50 (converted)
# Description: Cytotoxicity against human P-gp-negative KB-3-1 cells after 72 hrs by MTT assay

Completed entries (count: 3):
1) COc1ccc(NC(=S)N/N=C2\C(=O)Nc3ccc([N+](=O)[O-])cc32)cc1 :: 26.3 µM
2) C=CCNC(=S)N/N=C1\C(=O)Nc2ccc([N+](=O)[O-])cc21 :: 28.2 µM
3) O=C1Nc2ccc([N+](=O)[O-])cc2/C1=N/NC(=S)Nc1ccccc1 :: 14.5 µM

Exam item: Provide IC50 value for the following compound: Cc1cnc(/C=N/NC(N)=S)c2cccc(N)c12
Marked response: 1.91 µM

Exam item: Tell me measured IC50 for COc1ccc(NC(=S)NNC2=c3ccccc3=NC2=O)cc1 please.
Marked response: 14.1 µM

Exam item: Give the reported value of IC50 for this record: COc1ccc(NC(=S)N/N=C2\C(=O)Nc3ccc(F)cc32)cc1
Marked response: 38.9 µM

Exam item: Query IC50 for C=CCNC(=S)N/N=C1\C(=O)Nc2ccccc21
Marked response: 26.3 µM

* * *

# targetOfAssay: Serine/threonine-protein kinase PLK2 (Homo sapiens, UniProt Q9NYY3)
# Sequence (Q9NYY3 whole entry): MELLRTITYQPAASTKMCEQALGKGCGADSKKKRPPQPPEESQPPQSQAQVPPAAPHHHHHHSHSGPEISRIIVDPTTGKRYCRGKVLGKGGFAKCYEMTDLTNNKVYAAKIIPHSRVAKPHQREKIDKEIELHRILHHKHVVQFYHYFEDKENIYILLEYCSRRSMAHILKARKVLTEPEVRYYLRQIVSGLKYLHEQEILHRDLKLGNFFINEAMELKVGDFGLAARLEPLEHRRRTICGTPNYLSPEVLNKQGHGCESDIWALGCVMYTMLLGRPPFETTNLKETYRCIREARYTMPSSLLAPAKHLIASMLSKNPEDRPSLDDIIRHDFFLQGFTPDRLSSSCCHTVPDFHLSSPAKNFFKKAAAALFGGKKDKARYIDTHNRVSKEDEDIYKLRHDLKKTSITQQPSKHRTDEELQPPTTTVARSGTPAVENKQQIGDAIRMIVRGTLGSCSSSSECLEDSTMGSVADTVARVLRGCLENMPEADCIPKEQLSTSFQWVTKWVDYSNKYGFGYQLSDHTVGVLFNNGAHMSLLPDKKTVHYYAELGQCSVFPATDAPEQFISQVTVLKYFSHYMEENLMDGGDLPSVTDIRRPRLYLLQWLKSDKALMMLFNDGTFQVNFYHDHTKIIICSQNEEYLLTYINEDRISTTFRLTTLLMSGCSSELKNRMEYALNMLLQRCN
metricName: IC50

Exam item: Look up Serine/threonine-protein kinase PLK2 (Homo sapiens, UniProt Q9NYY3) data: IC50 of COc1ccc(NC(=S)NNC2=c3ccccc3=NC2=O)cc1 , then report it.
Marked response: > 50 µM

* * *

# testSummary: cells
# conditionDescription: Homo sapiens, KB 3-1, 72 h, read-out: pIC50 (converted)
metricName: log10 IC50 (log10 of the value in µM)
The common logarithm of IC50 in µM is what is listed.

Illustrative cases are given below, each with its answer.
1) O=C1Nc2ccc(Br)cc2/C1=N/NC(=S)Nc1ccc(F)cc1 :: 1.12
2) COc1ccc(NC(=S)N/N=C2\C(=O)Nc3c2ccc2ccccc32)cc1 :: 0.64
3) O=C1Nc2ccc(Br)cc2/C1=N/NC(=S)Nc1ccc([N+](=O)[O-])cc1 :: 1.45

Exam item: Return the recorded log10 IC50 value; entry: COc1ccc(NC(=S)N/N=C/c2ccccn2)cc1
Marked response: 0.53

Exam item: Dear colleague, please send me the reported log10 IC50 for COc1ccc(NC(=S)N/N=C2\C(=O)N(C)c3ccccc32)cc1 when you can.
Marked response: 1.29

Exam item: Given the compound NC(=S)N/N=C/c1ncccc1N [TRIAPINE] , write its reported log10 IC50.
Marked response: 0.15
